Molecular target: human activated kallikrein enzyme (Homo sapiens)
Assay: Plasma kallikrein inhibition, fluorogenic PFR-AMC substrate, 500 pM activated kallikrein format
Type: biochemical
Conditions: 500 pM activated kallikrein, 300 uM PFR-AMC, 30 min preincubation, 10 min reaction; read-out: Primary Dose Response Assay: Average EC50
Description: Compounds were evaluated for inhibition of the human activated kallikrein enzyme in two formats of an assay employing a fluorogenic peptide substrate. […] After initiation with substrate, reactions were incubated for 10 min at room temperature and fluorescence emission at 460 nm from 380 nm excitation measured with a microplate reader. […]
pEC50: −log10 of the molar value.
In this section, each of the compounds is paired with its reported pEC50.

// below: answered compounds
{"COMPOUND": "CN1CCN(c2cc(C3CC3)cn3cc(CNc4cnnc(NC(=O)[C@H]5C[C@@H]5c5cccc(Cl)c5)c4)nc23)CC1 [Example 612]", "EXPERIMENTAL TARGET": "human activated kallikrein enzyme (Homo sapiens)", "READOUT": "pEC50", "REPORTED": "> 9.00"}
{"COMPOUND": "Cc1ccnc([C@H]2C[C@@H]2C(=O)Nc2cc(OCc3cn4cc(C5CC5)cc(N5CC(=O)N(C)C5=O)c4n3)nc(OCCN(C)C)n2)n1 [Example 563]", "EXPERIMENTAL TARGET": "human activated kallikrein enzyme (Homo sapiens)", "READOUT": "pEC50", "REPORTED": "> 9.00"}
{"COMPOUND": "O=C(Nc1cc(NCc2cn3cc(C4CC4)ccc3n2)ncn1)[C@@H]1C[C@]12C(=O)Nc1ccc(Cl)cc12 (racemic) [Example 509]", "EXPERIMENTAL TARGET": "human activated kallikrein enzyme (Homo sapiens)", "READOUT": "pEC50", "REPORTED": "> 9.00"}
{"COMPOUND": "CN(C)C1CCN(c2cc(C3CC3)cn3cc(CNc4cc(NC(=O)[C@H]5C[C@@H]5c5cccc(Cl)c5)ncn4)nc23)C1 (single isomer, unassigned) [Example I-14]", "EXPERIMENTAL TARGET": "human activated kallikrein enzyme (Homo sapiens)", "READOUT": "pEC50", "REPORTED": "8.00 to 9.00"}
{"COMPOUND": "CN1C(=O)CN(c2cc(C3CC3)cn3cc(CNc4cc(NC(=O)[C@H]5C[C@@H]5c5cc(Cl)ccc5C#N)ncn4)nc23)C1=O (racemic) [Example I-170]", "EXPERIMENTAL TARGET": "human activated kallikrein enzyme (Homo sapiens)", "READOUT": "pEC50", "REPORTED": "> 9.00"}
{"COMPOUND": "CN1CC(c2cc(C3CC3)cn3cc(CNc4ccnc(NC(=O)[C@H]5C[C@@H]5c5cccc(Cl)c5)c4)nc23)C1 [Example 609]", "EXPERIMENTAL TARGET": "human activated kallikrein enzyme (Homo sapiens)", "READOUT": "pEC50", "REPORTED": "> 9.00"}
{"COMPOUND": "CN1CC2(C1)CN(c1cc(C3CC3)cn3cc(CNc4ccnc(NC(=O)[C@H]5C[C@@H]5c5cccc(Cl)c5)c4)nc13)C2 [Example 140]", "EXPERIMENTAL TARGET": "human activated kallikrein enzyme (Homo sapiens)", "READOUT": "pEC50", "REPORTED": "> 9.00"}
{"COMPOUND": "Cc1ccnc([C@H]2C[C@@H]2C(=O)Nc2cc(N(Cc3cn4cc(C5CC5)cc(N5CC(=O)N(C)C5=O)c4n3)C(=O)OC(C)OC(=O)C(C)C)ncn2)n1 (stereo partly drawn) [Example 467]", "EXPERIMENTAL TARGET": "human activated kallikrein enzyme (Homo sapiens)", "READOUT": "pEC50", "REPORTED": "6.00 to 7.00"}
{"COMPOUND": "Cc1ccnc([C@H]2C[C@@H]2C(=O)Nc2cc(NCc3cn4cc(C5CC5)cc(N5CC(=O)N(COP(=O)(O)O)C5=O)c4n3)ncn2)n1 [Example 466]", "EXPERIMENTAL TARGET": "human activated kallikrein enzyme (Homo sapiens)", "READOUT": "pEC50", "REPORTED": "> 9.00"}
{"COMPOUND": "Cc1ccnc([C@H]2C[C@@H]2C(=O)Nc2cc(N[C@H](C)c3cn4cc(C5CC5)cc(N5CC(=O)N(C)C5=O)c4n3)nc(CCO)n2)n1 [Example 468]", "EXPERIMENTAL TARGET": "human activated kallikrein enzyme (Homo sapiens)", "READOUT": "pEC50", "REPORTED": "> 9.00"}

## Input Recorded pEC50 for Cc1ccnc([C@H]2C[C@@H]2C(=O)Nc2cc(NC(CO)c3cn4cc(C5CC5)cc(N5CC(=O)N(C)C5=O)c4n3)nc(C)n2)n1 (stereo partly drawn) [Example I-650] , please?
## Output > 9.00

## Input Param item: COc1nc(NCc2cn3cc(C4CC4)ccc3n2)cc(NC(=O)[C@@H]2C[C@H]2c2cccc(Cl)c2)n1 (racemic) [Example 107]
## Output 7.00 to 8.00

###

target: plasma kallikrein (Homo sapiens); construct: from tissue; assay: Neat human plasma assay, FXIIa contact pathway-activated, PFR-AMC substrate; assay type: biochemical; conditions: citrated human plasma 78% final, 10 nM human FXIIa, 100 μM PFR-AMC; read-out: Human Plasma Assay: IC90
Sequence (P03952 391-638 limits assumed): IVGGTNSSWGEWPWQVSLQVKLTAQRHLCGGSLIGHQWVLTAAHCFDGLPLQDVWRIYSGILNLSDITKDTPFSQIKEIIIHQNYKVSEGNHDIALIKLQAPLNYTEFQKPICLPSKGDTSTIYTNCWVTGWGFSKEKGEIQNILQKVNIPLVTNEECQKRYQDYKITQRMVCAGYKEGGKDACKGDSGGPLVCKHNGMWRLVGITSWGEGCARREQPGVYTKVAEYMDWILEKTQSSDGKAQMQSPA
Sequence (P03952 20-390 partner limits assumed): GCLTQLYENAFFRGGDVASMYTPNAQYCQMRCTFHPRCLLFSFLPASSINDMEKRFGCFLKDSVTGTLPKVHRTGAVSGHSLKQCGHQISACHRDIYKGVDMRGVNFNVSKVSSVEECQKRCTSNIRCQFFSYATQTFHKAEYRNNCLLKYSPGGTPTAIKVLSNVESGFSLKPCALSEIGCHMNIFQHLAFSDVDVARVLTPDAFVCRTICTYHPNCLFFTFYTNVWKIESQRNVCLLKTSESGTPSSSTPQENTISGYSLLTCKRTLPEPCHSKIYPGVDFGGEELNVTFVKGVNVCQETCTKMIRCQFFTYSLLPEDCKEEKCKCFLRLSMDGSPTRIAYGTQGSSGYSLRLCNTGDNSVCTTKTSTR
In this section, each of the compounds is paired with its reported IC90.

{"COMPOUND": "Cc1ccnc([C@H]2C[C@@H]2C(=O)Nc2cc(NCc3cn4cc(C5CC5)cc(N5CCOC5=O)c4n3)ncn2)n1 [Example 376]", "IC90": "< 400 nM"}

## Input Provide the documented IC90 with plasma kallikrein (Homo sapiens) as the system for Cc1cc(NCc2cn3cc(C4CC4)cc(N4CC(=O)N(C)C4=O)c3n2)nc(NC(=O)[C@H]2C[C@@H]2c2nccc(C)n2)n1 (racemic)
## Output < 400 nM

## Input Param item: CN1CCN(c2cc(C3CC3)cn3cc(CNc4cnnc(NC(=O)[C@H]5C[C@@H]5c5cccc(Cl)c5)c4)nc23)CC1
## Output 1500 to 10000 nM

## Input Param item: CN1CCN(c2cc(C3CC3)cn3cc(CNc4ccnc(NC(=O)[C@H]5C[C@@H]5c5cccc(Cl)c5)c4)nc23)C(=O)C1
## Output < 400 nM

## Input Param item: CN1CC(O)(c2cc(C3CC3)cn3cc(CNc4cc(NC(=O)[C@H]5C[C@@H]5c5cccc(Cl)c5)ncn4)nc23)C1
## Output < 400 nM

## Input Param item: O=C(Nc1cc(NCc2cn3cc(C4CC4)cc(N4CCSCC4=O)c3n2)ncn1)[C@H]1C[C@@H]1c1cccc(Cl)c1
## Output 1500 to 10000 nM

## Input Param item: O=C(Nc1nsc(NCc2cn3cc(C4CC4)ccc3n2)n1)[C@H]1C[C@@H]1c1cccc(Cl)c1
## Output 10000 to 48000 nM

###

target: plasma kallikrein (Homo sapiens); construct: from tissue; assay: Neat human plasma assay, FXIIa contact pathway-activated, PFR-AMC substrate; type: biochemical; details: citrated human plasma 78% final, 10 nM human FXIIa, 100 μM PFR-AMC; read-out: Human Plasma Assay: IC90
READOUT: IC90

// below: answered compounds
{"COMPOUND": "O=C(Nc1cc(NCc2cn3cc(C4CC4)cc(CO)c3n2)ccn1)[C@H]1C[C@@H]1c1cccc(Cl)c1", "READOUT": "IC90", "REPORTED": "400 to 1500 nM"}
{"COMPOUND": "O=C(Nc1cc(NCc2cn3cc(C4CC4)cc(N4CCN(C5COC5)CC4)c3n2)ncn1)[C@H]1C[C@@H]1c1cccc(Cl)c1", "READOUT": "IC90", "REPORTED": "400 to 1500 nM"}
{"COMPOUND": "O=C(Nc1cc(NCc2cn3cc(C4CC4)cc(N4CC(F)C4)c3n2)ccn1)[C@H]1C[C@@H]1c1cccc(Cl)c1", "READOUT": "IC90", "REPORTED": "10000 to 48000 nM"}

## Input Recorded IC90 for Cc1nc([C@H]2C[C@@H]2C(=O)Nc2cc(N[C@H](C)c3cn4cc(C5CC5)cc(N5CC(=O)N(C)C5=O)c4n3)ncn2)ncc1F (relative stereo) , please?
## Output 400 to 1500 nM

###

In this section, each of the compounds is paired with its reported IC90.
biological target: plasma kallikrein (Homo sapiens); construct: from tissue; assay: Neat human plasma assay, FXIIa contact pathway-activated, PFR-AMC substrate; format: biochemical; details: citrated human plasma 78% final, 10 nM human FXIIa, 100 μM PFR-AMC; read-out: Human Plasma Assay: IC90

// below: answered compounds
{"COMPOUND": "Cc1ccnc([C@H]2C[C@@H]2C(=O)Nc2cc(N(C)Cc3cn4cc(C5CC5)cc(N5CC(=O)N(CC(C)(C)O)C5=O)c4n3)ncn2)n1 [Example 368]", "EXPERIMENTAL TARGET": "plasma kallikrein (Homo sapiens)", "IC90": "< 400 nM"}
{"COMPOUND": "Cc1ccnc([C@H]2C[C@@H]2C(=O)Nc2cc(NCc3cn4cc(C5CC5)cc(N5CC(=O)N(C)C5=O)c4n3)nc(C)n2)n1 [Example 365]", "EXPERIMENTAL TARGET": "plasma kallikrein (Homo sapiens)", "IC90": "< 400 nM"}
{"COMPOUND": "CN1CCN(c2cc(C3CC3)cn3cc(CNc4ccnc(NC(=O)[C@H]5C[C@@H]5c5cccc(Cl)c5)n4)nc23)CC1 [Example 88]", "EXPERIMENTAL TARGET": "plasma kallikrein (Homo sapiens)", "IC90": "400 to 1500 nM"}
{"COMPOUND": "Cc1ccnc([C@H]2C[C@@H]2C(=O)Nc2cc(NCc3cn4cc(C5CC5)cc(N5CC(=O)N(C)C5=O)c4n3)ncn2)n1 (racemic) [Example I-259]", "EXPERIMENTAL TARGET": "plasma kallikrein (Homo sapiens)", "IC90": "< 400 nM"}
{"COMPOUND": "O=C(Nc1cc(NCc2cn3cc(C4CC4)cc(N4C[C@@H](O)CC4=O)c3n2)ncn1)[C@H]1C[C@@H]1c1cccc(Cl)c1 (relative stereo) [Example 62]", "EXPERIMENTAL TARGET": "plasma kallikrein (Homo sapiens)", "IC90": "1500 to 10000 nM"}

## Input Provide the documented IC90 with plasma kallikrein (Homo sapiens) as the system for O=C(Nc1cc(NCc2cn3cc(C4CC4)cc(N4CCN(C5COC5)CC4)c3n2)ccn1)[C@H]1C[C@@H]1c1cccc(Cl)c1 [Example I-233]
## Output 400 to 1500 nM

## Input Param item: NCc1cc(C2CC2)cn2cc(CNc3ccnc(NC(=O)[C@H]4C[C@@H]4c4cccc(Cl)c4)c3)nc12 (racemic) [Example 120]
## Output 10000 to 48000 nM

## Input Param item: O=C(O)CN1CCN(c2cc(C3CC3)cn3cc(CNc4ccnc(NC(=O)[C@H]5C[C@@H]5c5cccc(Cl)c5)c4)nc23)CC1 [Example 602]
## Output < 400 nM

## Input Param item: Cc1ccnc([C@H]2C[C@@H]2C(=O)Nc2cc(N3C[C@@H](O)C[C@@H]3c3cn4cc(C5CC5)ccc4n3)ncn2)n1 (relative stereo) [Example 476]
## Output 1500 to 10000 nM

## Input Param item: Cc1ccnc([C@H]2C[C@@H]2C(=O)Nc2cc(OCc3cn4cc(C5CC5)ccc4n3)cnn2)n1 [Example 568]
## Output 1500 to 10000 nM
